measured_attribute: melting point

Previously resolved entries follow.
CN(C)c1cc2c(cc1C(F)(F)F)NC(=O)CC(c1cccc(-c3ccc(S(N)(=O)=O)cc3)c1)=N2 [Example 12] | 246 °C (dec.)
Cc1cc2c(cc1C(F)(F)F)NC(=O)CC(c1cccc(-c3ccc(S(N)(=O)=O)cc3)c1)=N2 [Example 1] | > 260 °C

Here is the next item to consider.
-- ask Give recorded melting point. Cc1cc2c(cc1C(F)(F)F)NC(=O)CC(c1cccc(-c3cccc(S(N)(=O)=O)c3)c1)=N2 [Example 3]
-- reply 235 to 239 °C (dec.)

---

# Lookup of reported melting point keyed by entry

Previously resolved entries follow.
CN(C)c1cc2c(cc1C(F)(F)F)NC(=O)CC(c1cccc(-c3cccc(S(N)(=O)=O)c3)c1)=N2 [Example 13] | 258 °C (dec.)
CC(C)CNc1cc2c(cc1C(F)(F)F)NC(=O)CC(c1cccc(-c3cccc(S(N)(=O)=O)c3)c1)=N2 [Example 19] | 251 °C (dec.)
NS(=O)(=O)c1ccc(-c2cccc(C3=Nc4ccc(-c5ccccc5F)cc4NC(=O)C3)c2)cc1 [Example 16] | 240 to 250 °C (dec.)
Cc1cc2c(cc1C(F)(F)F)NC(=O)CC(c1cccc(-c3cccc(S(=O)(=O)NC(C)(C)C)c3)c1)=N2 [Example 2] | 133 °C (dec.)

-- ask Give recorded melting point. CC(C)(C)NS(=O)(=O)c1ccc(-c2cccc(C3=Nc4ccc(C(F)(F)F)cc4NC(=O)C3)c2)cc1 [Example 5]
-- reply 229 to 233 °C

These measurements were taken from patent US7511033B2.
